Hi there, I'd appreciate the recorded chromatographic logD for every entry that follows.
# ASSAY NOTES: Distribution coefficient, logD of compound at pH 7.4 by chromatographic method
# Type: physicochemical
# COND: octanol/water
One number for each entry.

Solved entries:
Prompt: What does the record list as chromatographic logD for CCCS(=O)(=O)Nc1ccc(F)c(C(=O)c2c[nH]c3ncc(-c4ccc(C(=O)NCCOCCOCC(=O)N[C@H](C(=O)N5C[C@H](O)C[C@H]5C(=O)NCc5ccc(-c6scnc6C)cc5)C(C)(C)C)cc4)cc23)c1F ?
Completion: 2.3

Prompt: Recorded chromatographic logD of CCCS(=O)(=O)Nc1ccc(F)c(C(=O)c2c[nH]c3ncc(-c4ccc(C(=O)NCCOCCOCCOCCCCC(=O)N[C@H](C(=O)N5C[C@H](O)C[C@H]5C(=O)NCc5ccc(-c6scnc6C)cc5)C(C)(C)C)cc4)cc23)c1F , please.
Completion: 2.4

Continue with the compound presented below.
Prompt: Suppose we examine the compound CCN(C)S(=O)(=O)Nc1ccc(F)c(C(=O)c2c[nH]c3ncc(-c4cnc(N5CCN(CC(=O)N[C@H](C(=O)N6C[C@H](O)C[C@H]6C(=O)N[C@@H](C)c6ccc(-c7scnc7C)cc6)C(C)(C)C)CC5)nc4)cc23)c1F ; what chromatographic logD value has been reported?
Completion: 3.2

###

# ASSAY NOTES: Distribution coefficient, logD of compound at pH 7.4 by chromatographic method
# Format: physicochemical
# COND: octanol/water
MEASURED PARAMETER: chromatographic logD
Numbers only.

Prompt: Name the reported chromatographic logD value associated with the molecule CCCS(=O)(=O)Nc1ccc(F)c(C(=O)c2c[nH]c3ncc(-c4ccc(CNC(=O)CCCCOCCOCCOCCOc5cc(-c6scnc6C)ccc5CNC(=O)[C@@H]5C[C@@H](O)CN5C(=O)[C@H](C(C)C)N5Cc6ccccc6C5=O)cc4)cc23)c1F
Completion: 2.7

Continue with the next molecule.
Prompt: Record request: chromatographic logD value, item CCCS(=O)(=O)Nc1ccc(F)c(C(=O)c2c[nH]c3ncc(-c4ccc(CNC(=O)CCCCOCCCCOCCCCOc5cc(-c6scnc6C)ccc5CNC(=O)[C@@H]5C[C@@H](O)CN5C(=O)[C@H](C(C)C)N5Cc6ccccc6C5=O)cc4)cc23)c1F
Completion: 3.6

###

Assignment: determine reported Remaining BRAF V600E level for the given compounds.
# Tested on: von Hippel-Lindau disease tumor suppressor/Serine/threonine-protein kinase B-raf (Homo sapiens), P15056+P40337 [V600E]
# ASSAY NOTES: Protac activity at VHL/BRAF V600E mutant degradation in human SK-MEL-28 cells harboring wild type NRAS assessed as remaining BRAF V600E level at 1 uM incubated for 4 hrs by densitometric analysis
# Format: cell-based
One number for each entry, in %.

Record excerpt, results attached:
Prompt: What does the record list as Remaining BRAF V600E level for CCCS(=O)(=O)Nc1ccc(F)c(C(=O)c2c[nH]c3ncc(-c4ccc(CNC(=O)CCCCOCCOCCOCCOc5cc(-c6scnc6C)ccc5CNC(=O)[C@@H]5C[C@@H](O)CN5C(=O)[C@H](C(C)C)N5Cc6ccccc6C5=O)cc4)cc23)c1F ?
Completion: 77

Prompt: What value of Remaining BRAF V600E level has been recorded for this entry: CCN(C)S(=O)(=O)Nc1ccc(F)c(C(=O)c2c[nH]c3ncc(-c4ccc(N5CCN(CC(=O)N[C@H](C(=O)N6C[C@H](O)C[C@H]6C(=O)NCc6ccc(-c7scnc7C)cc6)C(C)(C)C)CC5)cc4)cc23)c1F
Completion: 52

Prompt: Endpoint output: Remaining BRAF V600E level of CCCS(=O)(=O)Nc1ccc(F)c(C(=O)c2c[nH]c3ncc(-c4ccc(CNC(=O)CCCCOCCCCOCCCCOc5cc(-c6scnc6C)ccc5CNC(=O)[C@@H]5C[C@@H](O)CN5C(=O)[C@H](C(C)C)N5Cc6ccccc6C5=O)cc4)cc23)c1F . Value?
Completion: 77

Prompt: Report Remaining BRAF V600E level for CCCS(=O)(=O)Nc1ccc(F)c(C(=O)c2c[nH]c3ncc(-c4ccc(N5CCN(CC(=O)N[C@H](C(=O)N6C[C@H](O)C[C@H]6C(=O)NCc6ccc(-c7scnc7C)cc6)C(C)(C)C)CC5)cc4)cc23)c1F please.
Completion: 46

***
Prompt: Entry CCCS(=O)(=O)Nc1ccc(F)c(C(=O)c2c[nH]c3ncc(-c4ccc(C(=O)NCCOCCOCCOCCOc5cc(-c6scnc6C)ccc5CNC(=O)[C@@H]5C[C@@H](O)CN5C(=O)[C@H](C(C)C)N5Cc6ccccc6C5=O)cc4)cc23)c1F has what Remaining BRAF V600E level?
Completion: 73
